- SYSTEM: T1, PDZD7_3, Q9H5P4
- T1 sequence (Q9H5P4 857-944, limits assumed, looked up): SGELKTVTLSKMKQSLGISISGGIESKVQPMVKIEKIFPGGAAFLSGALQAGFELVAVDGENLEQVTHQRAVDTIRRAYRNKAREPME
- ASSAY_SUMMARY: holdup assay
- Parameters: key: below the threshold = too weak to quantify, mostly under pKd 3.1 to 4
- TEST_CONDITIONS: plain residues with an end cap or a label only (N-terminal biotin on a linker: ado-ado)
PROPERTY_MEASURED: pKd
Could you keep your reply to the number by itself?

[
  {
    "BINDER": "PLSPEQPTKL [TRIM50, Q86XT4]",
    "pKd": 4.04
  }
]

// switching to the query binder
Ask: # return recorded pKd for entry VYPNAKVELV [PDLIM4_iso2, P50479;P50479-1]
Reply: 3.99
